Reference source for all entries: the supplement of paper PMC7156485

- Tested on: TDF
- METHOD_DESCRIPTION: cell number relative to DMSO (% of DMSO); higher = more cells (less growth inhibition / toxicity);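 note: TDF denotes transformed human dermal fibroblasts of mesenchymal origin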
- CONDITION: concentration: 10 µM; 24 h
Decision: cell number >= 100 yields Condition met, all other cases yield Condition not met.

{"COMPOUND": "Cl.NC(N)=NC(=O)Cc1c(Cl)cccc1Cl [Guanfacine hydrochloride]", "TARGET_UNDER_TEST": "TDF", "CLASS_ASSIGNMENT": "Condition met"}
{"COMPOUND": "C[Se]CCC(N)C(=O)O (stereo not drawn) [Selenomethionine]", "TARGET_UNDER_TEST": "TDF", "CLASS_ASSIGNMENT": "Condition not met"}
{"COMPOUND": "CC[N+](CC)(CC)CC(=O)Nc1c(C)cccc1C.[Br-] [Lidocaine N-ethyl bromide quaternary salt]", "TARGET_UNDER_TEST": "TDF", "CLASS_ASSIGNMENT": "Condition met"}
{"COMPOUND": "NCC1CCC(C(=O)O)CC1 (stereo not drawn) [Tranexamic acid]", "TARGET_UNDER_TEST": "TDF", "CLASS_ASSIGNMENT": "Condition met"}
{"COMPOUND": "CC(Oc1c(Cl)cccc1Cl)C1=NCCN1.Cl (stereo not drawn) [Lofexidine.HCl]", "TARGET_UNDER_TEST": "TDF", "CLASS_ASSIGNMENT": "Condition met"}
{"COMPOUND": "CCC1C(=O)OCC1Cc1cncn1C.Cl (single isomer, unassigned; (+)) [(+)-Pilocarpine hydrochloride]", "TARGET_UNDER_TEST": "TDF", "CLASS_ASSIGNMENT": "Condition not met"}
{"COMPOUND": "CNC(CC(C)C)C(=O)NC1C(=O)NC(CC(N)=O)C(=O)NC2C(=O)NC3C(=O)NC(C(=O)NC(C(=O)O)c4cc(O)cc(O)c4-c4cc3ccc4O)C(O)c3ccc(c(Cl)c3)Oc3cc2cc(c3OC2OC(CO)C(O)C(O)C2OC2CC(C)(N)C(O)C(C)O2)Oc2ccc(cc2Cl)C1O.Cl (stereo not drawn) [Vancomycin hydrochloride from Streptomyces orientalis]", "TARGET_UNDER_TEST": "TDF", "CLASS_ASSIGNMENT": "Condition met"}
{"COMPOUND": "COc1ccc2c(c1OC)C(=O)OC2C1c2c(cc3c(c2OC)OCO3)CCN1C.Cl (stereo not drawn) [Noscapine hydrchloride]", "TARGET_UNDER_TEST": "TDF", "CLASS_ASSIGNMENT": "Condition not met"}
{"COMPOUND": "Cl.Cl.Nc1nccc(-c2c(-c3ccc(F)cc3)ncn2C2CCCCC2)n1", "TARGET_UNDER_TEST": "TDF", "CLASS_ASSIGNMENT": "Condition not met"}
{"COMPOUND": "COc1cc2nccc(Oc3ccc(NC(=O)Nc4cc(C)on4)c(Cl)c3)c2cc1OC.O [VEGFR Tyrosine Kinase Inhibitor IV]", "TARGET_UNDER_TEST": "TDF", "CLASS_ASSIGNMENT": "Condition not met"}
{"COMPOUND": "CCCCCCCCCCCC1N[C@H](C(=O)O)CS1 (stereo partly drawn) [(4R)-2-undecyl-1,3-thiazolidine-4-carboxylic acid]", "TARGET_UNDER_TEST": "TDF", "CLASS_ASSIGNMENT": "Condition met"}
{"COMPOUND": "CC1CC=CC=CC=CC=CC(OC2OC(C)C(O)C(N)C2O)CC2OC(O)(CC(O)CC3OC3C=CC(=O)O1)CC(O)C2C(=O)O (stereo not drawn) [Pimaricin]", "TARGET_UNDER_TEST": "TDF", "CLASS_ASSIGNMENT": "Condition not met"}
{"COMPOUND": "COc1cc2ncc(-c3ccccc3)nc2cc1OC [Tyrphostin AG 1296]", "TARGET_UNDER_TEST": "TDF", "CLASS_ASSIGNMENT": "Condition met"}
{"COMPOUND": "Nc1ccccc1NC(=O)CCCCCCC(=O)Nc1ccccc1 [N~1~-(2-aminophenyl)-N~8~-phenyloctanediamide]", "TARGET_UNDER_TEST": "TDF", "CLASS_ASSIGNMENT": "Condition not met"}
{"COMPOUND": "COC(=O)Nc1nc2ccc(S(=O)c3ccccc3)cc2[nH]1 (stereo not drawn) [Oxfendazole]", "TARGET_UNDER_TEST": "TDF", "CLASS_ASSIGNMENT": "Condition not met"}
{"COMPOUND": "COc1cc2ncnc(Nc3ccc(O)cc3)c2cc1OC", "TARGET_UNDER_TEST": "TDF", "CLASS_ASSIGNMENT": "Condition met"}
{"COMPOUND": "C[N+](C)(C)CCOC(N)=O.[Cl-] [Carbachol]", "TARGET_UNDER_TEST": "TDF", "CLASS_ASSIGNMENT": "Condition met"}
{"COMPOUND": "COC(=O)c1sccc1S(=O)(=O)Nc1ccc(Nc2ccccc2)cc1OC", "TARGET_UNDER_TEST": "TDF", "CLASS_ASSIGNMENT": "Condition not met"}
{"COMPOUND": "CNCCC(Oc1ccccc1OC)c1ccccc1.Cl (stereo not drawn) [Nisoxetine hydrochloride]", "TARGET_UNDER_TEST": "TDF", "CLASS_ASSIGNMENT": "Condition met"}
{"COMPOUND": "c1ccc(-c2ccccn2)nc1 [2,2'-Bipyridyl]", "TARGET_UNDER_TEST": "TDF", "CLASS_ASSIGNMENT": "Condition not met"}
{"COMPOUND": "O=C(O)CP(=O)(O)O [Phosphonoacetic acid]", "TARGET_UNDER_TEST": "TDF", "CLASS_ASSIGNMENT": "Condition met"}
{"COMPOUND": "CN(C)CCN1C(=O)c2ccccc2N(C)c2ccccc21 [Dibenzepine]", "TARGET_UNDER_TEST": "TDF", "CLASS_ASSIGNMENT": "Condition met"}
{"COMPOUND": "O=C1Nc2ccc(Br)cc2C1=Cc1cc2c([nH]1)CCCC2 [VEGF Receptor 2 Kinase Inhibitor II]", "TARGET_UNDER_TEST": "TDF", "CLASS_ASSIGNMENT": "Condition met"}

====

- Test system: TDF
- METHOD_DESCRIPTION: cell number relative to DMSO (% of DMSO); higher = more cells (less growth inhibition / toxicity)
- CONDITION: concentration: 10 µM; 24 h
Listed next: entries and their corresponding cell number.

{"COMPOUND": "c1ccc(-c2cnc(Nc3ccc(OCCN4CCCC4)cc3)s2)cc1", "cell number": 74.2}
{"COMPOUND": "CN(CC=CC#CC(C)(C)C)Cc1cccc2ccccc12.Cl", "cell number": 105}
{"COMPOUND": "CCCOc1cc2c(cc1\\C(C)=C/C=C/C(C)=C/C(=O)O)C(C)(C)CCC2(C)C", "cell number": 107}
{"COMPOUND": "Cc1nnc(SCC2=C(C(=O)[O-])N3C(=O)C(NC(=O)Cn4cnnn4)C3SC2)s1.[Na+] (stereo not given) [Cefazolin sodium]", "cell number": 116}
{"COMPOUND": "COc1cc2ccc(=O)oc2cc1O", "cell number": 113}

====

- Tested on: HCC1569
- METHOD_DESCRIPTION: cell number relative to DMSO (% of DMSO); higher = more cells (less growth inhibition / toxicity)
- CONDITION: concentration: 10 µM; 24 h
Each item that follows carries a reported cell number.

{"COMPOUND": "NC(=O)N1C(=O)/C(=C(\\O)c2cccs2)c2cc(Cl)ccc21", "cell number": 101}
{"COMPOUND": "CN1C2CCC1CC(OC(=O)c1c[nH]c3ccccc13)C2 (stereo not drawn) [Tropisetron]", "cell number": 102}
{"COMPOUND": "CCCCCC(O)C=CC1C2CC(CO2)C1CC=CCCCC(=O)O (stereo not drawn)", "cell number": 102}
{"COMPOUND": "CCCCNc1cc(C(=O)O)cc(S(N)(=O)=O)c1Oc1ccccc1 [Bumetanide]", "cell number": 103}
{"COMPOUND": "CC(C=CC1=C(C)CCCC1(C)C)=CC=CC(C)=CC(=O)O [Retinoic Acid]", "cell number": 98.1}
{"COMPOUND": "CN(C)c1nc(N(C)C)nc(N(C)C)n1 [Altretamine]", "cell number": 103}
{"COMPOUND": "C[C@H](c1ccc(F)cc1CCCC(=O)O)N(c1cc(F)ccc1F)S(=O)(=O)c1ccc(Cl)cc1", "cell number": 99.7}
{"COMPOUND": "COc1ccc(-n2[nH]c3c(cnc4ccccc43)c2=O)cc1 [2-(4-methoxyphenyl)-1H-pyrazolo[4,3-c]quinolin-3(2H)-one]", "cell number": 103}
{"COMPOUND": "CC1COc2c(N3CCN(C)CC3)c(F)cc3c(=O)c(C(=O)O)cn1c23 (stereo not drawn) [Ofloxacin]", "cell number": 101}
{"COMPOUND": "OCC1NC(CO)C(O)C1O [(2R,5R)-Bis(hydroxymethyl)-(3R,4R)-dihydroxypyrrolidine]", "cell number": 102}
{"COMPOUND": "CN(C)CCC=C1c2ccccc2COc2ccccc21.Cl [Doxepin hydrochloride]", "cell number": 100}
{"COMPOUND": "C=CC1CN2CCC1CC2C(O)c1ccnc2ccc(OC)cc12.C=CC1CN2CCC1CC2C(O)c1ccnc2ccc(OC)cc12.O=S(=O)(O)O (stereo not drawn) [Quinine sulfate]", "cell number": 102}
{"COMPOUND": "COc1ccc2cc1Oc1ccc(cc1)CC1c3cc(c(OC)cc3CCN1C)Oc1c(OC)c(OC)cc3c1C(C2)N(C)CC3 (stereo not drawn) [Isotetrandrine]", "cell number": 97.9}
{"COMPOUND": "CC[C@H](NC(=O)c1c(O)c(-c2ccccc2)nc2ccccc12)c1ccccc1", "cell number": 101}
{"COMPOUND": "CCOC(=O)C(C)(C)Oc1ccc(Cl)cc1 [Clofibrate]", "cell number": 102}
{"COMPOUND": "COc1ccccc1N1CCN(CCN(C(=O)c2ccc(F)cc2)c2ccccn2)CC1.Cl.Cl [p-MPPF dihydrochloride]", "cell number": 99.7}
{"COMPOUND": "CCC=CCC=CCC=CCC=CCC=CCCCC(=O)O", "cell number": 98}
{"COMPOUND": "CC(C)NCC(O)COc1cccc2[nH]ccc12 (stereo not drawn) [S(-)-Pindolol]", "cell number": 102}
{"COMPOUND": "CCCCCC(O)C=CC1C(O)CC(O)C1CC=CCCCC(=O)O (stereo not drawn) [9b,11a Prostaglandin F2]", "cell number": 100}
{"COMPOUND": "COc1cc2ncc(-c3ccccc3)nc2cc1OC [Tyrphostin AG 1296]", "cell number": 98.1}
{"COMPOUND": "CC1(COc2ccc(CC3SC(=O)NC3=O)cc2)CCCCC1 (stereo not drawn) [Ciglitizone]", "cell number": 102}
{"COMPOUND": "CN1CCc2cc3c(cc2C(=O)Cc2ccc4c(c2C1)OCO4)OCO3 [Protopine]", "cell number": 99.4}
{"COMPOUND": "O=C1C(Cl)=C(N2C(=O)CCC2=O)C(=O)c2ccccc21 [MEK Inhibitor II]", "cell number": 98.9}
